Values from patent US20250179045A1

# target_under_test: human LPA1 (Homo sapiens, UniProt Q92633)
# Sequence (Q92633 whole entry): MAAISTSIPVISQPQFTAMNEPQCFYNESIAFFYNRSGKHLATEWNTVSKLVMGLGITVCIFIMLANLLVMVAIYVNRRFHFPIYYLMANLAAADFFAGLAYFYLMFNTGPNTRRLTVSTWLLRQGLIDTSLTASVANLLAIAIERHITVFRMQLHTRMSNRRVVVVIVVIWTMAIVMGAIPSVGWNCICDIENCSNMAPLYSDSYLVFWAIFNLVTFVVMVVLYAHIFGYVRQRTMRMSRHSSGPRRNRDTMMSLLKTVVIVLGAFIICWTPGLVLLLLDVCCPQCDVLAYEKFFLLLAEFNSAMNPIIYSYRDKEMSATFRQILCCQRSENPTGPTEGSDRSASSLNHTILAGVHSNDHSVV
# assay_procedure: In vitro functional assay of lysophosphatidic acid receptor 1 activity (calcium flux)
# Type: cell-based
# test_settings: B103 cells stably expressing human LPA1; Fluo-4 NW calcium flux after lysophosphatidic acid (18:1) at EC80; compounds 100 pM to 10 μM; read-out: LPA1 IC50
pIC50: −log10 of the molar value.
metric_name: pIC50

Examples from the recorded data:
Cc1ccc(NC(=O)C2(c3ncccc3C(C)C)CC(O)C2)c(OC(F)F)n1 (mixture of isomers) [Example 57]	7.00 to 8.00
COc1nc(NC(=O)C2(c3ccccc3C(C)C)CNC(=O)C2)c(OC(F)F)cc1Cl (stereo not shown) [Example 12]	< 6.00
COc1cc(Br)cnc1NC(=O)C1(c2ccccc2C(C)C)COC1 [Example 23]	6.00 to 7.00
COc1ccc(NC(=O)C2(c3ccccc3C(C)C)CCC3(CC2)NC(=O)NC3=O)c(OC(F)F)n1 (mixture of isomers) [Example 86]	6.00 to 7.00
Cc1ccc(NC(=O)C2(c3ccccc3C(C)C)CC(C(=O)O)C2)c(OC(F)F)n1 (stereo not shown) [Example 65]	7.00 to 8.00

Problem: Fill in the blank: the reported pIC50 of COc1cc(C)ncc1NC(=O)C1(c2ccccc2C(C)C)COC1 [Example 36] is ____.
Result: < 6.00

Problem: Please answer likewise for CC(=O)N(C)C1CC(C(=O)Nc2ccc(C)nc2OC(F)F)(c2ccccc2C(C)C)C1 (mixture of isomers) [Example 43]
Result: 7.00 to 8.00

Problem: Please answer likewise for COc1cnc(NC(=O)C2(c3ccccc3C(C)C)COC2)c(OC(F)F)c1 [Example 35]
Result: 6.00 to 7.00

Problem: Please answer likewise for COc1ccc(NC(=O)C2(c3ccccc3C(C)C)COC2)c(OC(C)C)n1 [Example 30]
Result: 7.00 to 8.00

Problem: Please answer likewise for CC(C)c1ccccc1C1(C(=O)Nc2ncc(Cl)cc2OC(F)F)COC1 [Example 22]
Result: 7.00 to 8.00

Problem: Please answer likewise for COc1ccc(NC(=O)C2(c3ccccc3C(C)C)CNC(=O)C2)c(OC)n1 (stereo not shown) [Example 103]
Result: 6.00 to 7.00

Problem: Please answer likewise for CC(C)c1ccccc1C1(C(=O)Nc2ncc(Cl)cc2OC(F)F)CC(CC(=O)O)C1 (stereo not shown) [Example 47]
Result: 7.00 to 8.00

Problem: Please answer likewise for COC[C@H](C)Oc1nc(OC)ccc1NC(=O)C1(c2ccccc2C(C)C)COC1 [Example 31]
Result: 7.00 to 8.00
